The reported numbers originate from ChEMBL document CHEMBL5727241.

Target: Toll-like receptor 8 (Homo sapiens)
Sequence (Q9NR97 whole entry): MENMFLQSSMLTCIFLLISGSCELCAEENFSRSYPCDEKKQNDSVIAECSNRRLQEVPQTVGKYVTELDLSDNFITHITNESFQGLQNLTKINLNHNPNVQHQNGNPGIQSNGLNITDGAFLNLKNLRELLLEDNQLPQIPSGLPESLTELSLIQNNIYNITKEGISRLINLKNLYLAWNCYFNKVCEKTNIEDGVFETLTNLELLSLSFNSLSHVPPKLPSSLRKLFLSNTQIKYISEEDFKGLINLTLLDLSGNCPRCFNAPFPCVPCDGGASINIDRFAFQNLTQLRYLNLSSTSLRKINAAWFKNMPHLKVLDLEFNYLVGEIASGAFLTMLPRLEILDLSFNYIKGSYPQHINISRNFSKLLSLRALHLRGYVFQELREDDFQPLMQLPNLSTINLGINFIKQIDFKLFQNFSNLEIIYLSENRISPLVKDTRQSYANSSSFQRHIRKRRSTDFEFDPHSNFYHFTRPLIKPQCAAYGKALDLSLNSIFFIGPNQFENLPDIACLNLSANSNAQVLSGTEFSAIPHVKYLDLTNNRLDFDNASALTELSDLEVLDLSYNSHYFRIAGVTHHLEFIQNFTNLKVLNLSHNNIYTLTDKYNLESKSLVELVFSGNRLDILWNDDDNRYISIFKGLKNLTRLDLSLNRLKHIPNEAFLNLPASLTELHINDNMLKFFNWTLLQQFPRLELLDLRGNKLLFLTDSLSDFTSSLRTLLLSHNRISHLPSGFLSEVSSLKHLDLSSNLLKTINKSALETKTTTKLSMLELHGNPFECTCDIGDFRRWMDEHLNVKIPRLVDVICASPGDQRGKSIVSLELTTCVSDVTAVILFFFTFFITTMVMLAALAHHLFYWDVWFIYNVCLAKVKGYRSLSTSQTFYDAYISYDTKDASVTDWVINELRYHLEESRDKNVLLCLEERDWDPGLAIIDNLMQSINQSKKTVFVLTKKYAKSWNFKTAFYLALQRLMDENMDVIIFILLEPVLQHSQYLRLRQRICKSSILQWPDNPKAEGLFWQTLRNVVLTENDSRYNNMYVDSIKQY
Experiment: Pharmacological Assay: For TLR8 and TLR7 activity testing, HEK-Blue human TLR8 or TLR7 cells (Invivogen, San Diego, Calif., USA) are used, respectively. These cells are designed for studying the stimulation of human TLR8 or TLR7 by monitoring the activation of NF-κB. A SEAP (secreted embryonic alkaline phosphatase) reporter gene is placed under the control of the IFN-b minimal promoter fused to five NF-κB and AP-1-binding sites. Therefore the reporter expression is regulated by the NF-κB promoter upon stimulation of human TLR8 or TLR7 for 20 hours. The cell culture supernatant SEAP reporter activity was determined using Quanti Blue kit (Invivogen, San Diego, Ca, USA) at a wavelength of 640 nm, a detection medium that turns purple/blue in the presence of alkaline phosphatase.
property name: EC50 (nM)
Return type: number; implicit unit nM.

The compound listed as `CCCN(CCC)C(=O)C1=Cc2ccc(C(=O)N3CC(OCc4ccccc4)C3)cc2N=C(N)C1` shows EC50 equal to 4

* * *

Target: Toll-like receptor 7 (Homo sapiens, UniProt Q9NYK1)
Sequence (Q9NYK1 whole entry, the tested form may be a part): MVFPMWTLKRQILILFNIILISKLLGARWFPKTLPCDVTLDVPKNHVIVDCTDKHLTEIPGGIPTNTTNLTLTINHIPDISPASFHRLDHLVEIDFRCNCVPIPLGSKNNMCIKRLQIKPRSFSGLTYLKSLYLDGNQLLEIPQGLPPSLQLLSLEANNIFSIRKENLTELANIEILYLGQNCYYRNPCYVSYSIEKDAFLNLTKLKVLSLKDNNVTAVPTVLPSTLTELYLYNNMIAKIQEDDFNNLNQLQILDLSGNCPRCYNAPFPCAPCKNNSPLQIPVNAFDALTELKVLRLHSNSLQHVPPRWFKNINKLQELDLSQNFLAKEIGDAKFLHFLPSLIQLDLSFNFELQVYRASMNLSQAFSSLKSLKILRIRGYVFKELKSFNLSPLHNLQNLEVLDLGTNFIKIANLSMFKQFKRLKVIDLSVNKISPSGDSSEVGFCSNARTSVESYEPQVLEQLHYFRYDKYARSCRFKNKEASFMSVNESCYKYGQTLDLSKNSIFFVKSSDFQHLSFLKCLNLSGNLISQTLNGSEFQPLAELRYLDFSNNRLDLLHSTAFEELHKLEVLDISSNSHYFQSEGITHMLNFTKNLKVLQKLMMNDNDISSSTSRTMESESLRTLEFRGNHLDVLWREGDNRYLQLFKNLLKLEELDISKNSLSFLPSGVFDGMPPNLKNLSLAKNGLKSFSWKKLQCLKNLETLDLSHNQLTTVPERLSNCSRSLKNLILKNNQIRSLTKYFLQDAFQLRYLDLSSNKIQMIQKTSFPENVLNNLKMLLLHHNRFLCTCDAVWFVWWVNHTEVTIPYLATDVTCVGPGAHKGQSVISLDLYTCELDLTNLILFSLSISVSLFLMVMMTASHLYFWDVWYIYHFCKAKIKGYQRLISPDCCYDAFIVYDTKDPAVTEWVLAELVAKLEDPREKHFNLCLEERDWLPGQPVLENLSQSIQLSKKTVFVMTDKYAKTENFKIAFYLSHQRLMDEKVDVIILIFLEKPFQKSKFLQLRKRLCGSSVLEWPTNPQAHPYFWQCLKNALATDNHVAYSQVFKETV
Assay: Pharmacological Assay: For TLR8 and TLR7 activity testing, HEK-Blue human TLR8 or TLR7 cells (Invivogen, San Diego, Calif., USA) are used, respectively. These cells are designed for studying the stimulation of human TLR8 or TLR7 by monitoring the activation of NF-κB. A SEAP (secreted embryonic alkaline phosphatase) reporter gene is placed under the control of the IFN-b minimal promoter fused to five NF-κB and AP-1-binding sites. Therefore the reporter expression is regulated by the NF-κB promoter upon stimulation of human TLR8 or TLR7 for 20 hours. The cell culture supernatant SEAP reporter activity was determined using Quanti Blue kit (Invivogen, San Diego, Ca, USA) at a wavelength of 640 nm, a detection medium that turns purple/blue in the presence of alkaline phosphatase.
property name: pEC50
The meaning of pEC50 here: minus log10 of the concentration in molar units.

The molecule listed as `CCCN(CCC)C(=O)C1=Cc2ccc(C(=O)N3CC(OCc4ccccc4)C3)cc2N=C(N)C1` shows pEC50 equal to 4.82
